tested on: Klebsiella pneumoniae IO 83-5; test: in vitro antibacterial MIC, agar plate dilution; type: cell-based; conditions: Klebsiella pneumoniae, IO835, 18 h, 35° C., read-out: MIC

molecule	MIC
CCn1cc(C(=O)O)c(=O)c2cc(F)c(N3CCN(C)C(c4ccnn4C)C3)cc21 (centres unmarked)	16 µg/mL
CN1CCN(c2c(F)c(F)c3c(=O)c(C(=O)O)cn(C4CC4)c3c2F)CC1	0.06 µg/mL
CCn1cc(C(=O)O)c(=O)c2cc(F)c(N3CCN(C)C(c4ccn(C)n4)C3)cc21 (centres unmarked)	> 16 µg/mL
O=C(O)c1cn(C2CC2)c2cc(N3CCNC(CF)C3)c(F)cc2c1=O (centres unmarked)	0.12 µg/mL
O=C(O)c1cn(C2CC2)c2cc(N3CCNC(c4cc[nH]n4)C3)c(F)cc2c1=O (centres unmarked)	1 µg/mL

----------
List of MIC values.
test system: Escherichia coli CMC 84-16; test: in vitro antibacterial MIC, agar plate dilution; format: cell-based; settings: Escherichia coli, CMC8416, 18 h, 35° C., read-out: MIC

compound	MIC
CCn1cc(C(=O)O)c(=O)c2cc(F)c(N3CCNC(c4ccco4)C3)cc21 (stereo not shown) [Example 28]	≤ 0.12 µg/mL
CCCCCCCCCCCCOCC1CN(c2cc3c(cc2F)c(=O)c(C(=O)O)cn3CC)CCN1 (stereo not shown) [Example 74]	> 256 µg/mL
CCn1cc(C(=O)O)c(=O)c2cc(F)c(N3CCN(C)C(c4cc5cc(Cl)ccc5o4)C3)cc21 (stereo not shown) [Example 55]	> 256 µg/mL
CCn1cc(C(=O)O)c(=O)c2cc(F)c(N3CCN(C)CC3)c(F)c21 [Example 61]	< 0.015 µg/mL
CCn1cc(C(=O)O)c(=O)c2cc(F)c(N3CCN(C)C(c4sc5ccccc5c4C)C3)cc21 (stereo not shown) [Example 54]	> 256 µg/mL
O=C(O)c1cn(C2CC2)c2cc(N3CCNC(c4ccsc4)C3)c(F)cc2c1=O (stereo not shown) [Example 60]	< 0.12 µg/mL
CCn1cc(C(=O)O)c(=O)c2cc(F)c(N3CCNC(c4sc5ccccc5c4C)C3)cc21 (stereo not shown) [Example 22]	> 256 µg/mL

----------
What follows is a collection of MIC values obtained with Klebsiella oxytoca MOR 84-28.

compound	MIC
O=C(O)c1cn(C2CC2)c2cc(N3CCNC(c4ccsc4)C3)c(F)cc2c1=O (stereo not shown) [Example 60]	< 0.12 µg/mL
CCn1cc(C(=O)O)c(=O)c2cc(F)c(N3CCNC(CNC)C3)cc21.Cl.Cl (stereo not shown) [Example 53]	> 128 µg/mL
CCn1cc(C(=O)O)c(=O)c2cc(F)c(N3CCN(C)C(c4cc5cc(Cl)ccc5o4)C3)cc21 (stereo not shown) [Example 55]	> 256 µg/mL
CCCCCCCCCCCCOCC1CN(c2cc3c(cc2F)c(=O)c(C(=O)O)cn3CC)CCN1 (stereo not shown) [Example 74]	> 256 µg/mL

----------
Tested on: Pseudomonas aeruginosa LL-1244
Test: in vitro antibacterial MIC, agar plate dilution
Type: cell-based
Conditions: Pseudomonas aeruginosa, LL1244, 18 h, 35° C., read-out: MIC
Procedure: The in vitro antimicrobial spectrum of the compounds of ths invention were determined by the agar plate dilution method with Mueller-Hinton agar and an inoculum of each test organism of approximately 10^4 colony forming units delivered by the Steers replicating device. The minimal inhibitory concentration (MIC) in mcg/ml is defined as the lowest concentration of test compound that inhibited visible growth after 18 hours incubation at 35° C. […]
propertyLabel: MIC

molecule	testValue
CCCCCCOCC1CN(c2cc3c(cc2F)c(=O)c(C(=O)O)cn3CC)CCN1 (stereo not drawn)	> 256 µg/mL
CCn1cc(C(=O)O)c(=O)c2cc(F)c(N3CCNC(c4sc5ccccc5c4C)C3)cc21 (stereo not drawn)	> 256 µg/mL
O=C(O)c1cn(-c2ccc(F)cc2)c2cc(N3CCNC(COc4ccccc4)C3)c(F)cc2c1=O (stereo not drawn)	> 128 µg/mL
